Numbers sourced from ChEMBL document CHEMBL3822423.

For each of the compounds below, state its MIC.
Test system: Pseudomonas aeruginosa
Protocol Description: Antibacterial activity against Pseudomonas aeruginosa ATCC 9027 after 18 to 24 hrs
Type: functional

Prompt: Record CCn1cc(C(=O)O)c(=O)c2cc(F)c(N3CCNCC3)cc21 [NORFLOXACIN] : what is its MIC with Pseudomonas aeruginosa?
Response: 1.7 µg/mL

Prompt: Record CCn1cc(C(C)=O)c(=O)c2cc(F)c(N3CCCCC3)cc21 : what is its MIC with Pseudomonas aeruginosa?
Response: 22.8 µg/mL

Prompt: Record CCn1cc(-c2csc(N)n2)c(=O)c2cc(Cl)cc(Cl)c21 : what is its MIC with Pseudomonas aeruginosa?
Response: 2.3 µg/mL

Prompt: Record CCn1cc(-c2csc(N)n2)c(=O)c2cc(N3CCCC3)c(Cl)cc21 : what is its MIC with Pseudomonas aeruginosa?
Response: 0.5 µg/mL

Prompt: Record CCn1cc(C(C)=O)c(=O)c2cc(F)c(N3CCCC3)cc21 : what is its MIC with Pseudomonas aeruginosa?
Response: 12.7 µg/mL
